- assay_target: Tie-2 (Homo sapiens, UniProt Q02763)
- Sequence (Q02763 23-1124): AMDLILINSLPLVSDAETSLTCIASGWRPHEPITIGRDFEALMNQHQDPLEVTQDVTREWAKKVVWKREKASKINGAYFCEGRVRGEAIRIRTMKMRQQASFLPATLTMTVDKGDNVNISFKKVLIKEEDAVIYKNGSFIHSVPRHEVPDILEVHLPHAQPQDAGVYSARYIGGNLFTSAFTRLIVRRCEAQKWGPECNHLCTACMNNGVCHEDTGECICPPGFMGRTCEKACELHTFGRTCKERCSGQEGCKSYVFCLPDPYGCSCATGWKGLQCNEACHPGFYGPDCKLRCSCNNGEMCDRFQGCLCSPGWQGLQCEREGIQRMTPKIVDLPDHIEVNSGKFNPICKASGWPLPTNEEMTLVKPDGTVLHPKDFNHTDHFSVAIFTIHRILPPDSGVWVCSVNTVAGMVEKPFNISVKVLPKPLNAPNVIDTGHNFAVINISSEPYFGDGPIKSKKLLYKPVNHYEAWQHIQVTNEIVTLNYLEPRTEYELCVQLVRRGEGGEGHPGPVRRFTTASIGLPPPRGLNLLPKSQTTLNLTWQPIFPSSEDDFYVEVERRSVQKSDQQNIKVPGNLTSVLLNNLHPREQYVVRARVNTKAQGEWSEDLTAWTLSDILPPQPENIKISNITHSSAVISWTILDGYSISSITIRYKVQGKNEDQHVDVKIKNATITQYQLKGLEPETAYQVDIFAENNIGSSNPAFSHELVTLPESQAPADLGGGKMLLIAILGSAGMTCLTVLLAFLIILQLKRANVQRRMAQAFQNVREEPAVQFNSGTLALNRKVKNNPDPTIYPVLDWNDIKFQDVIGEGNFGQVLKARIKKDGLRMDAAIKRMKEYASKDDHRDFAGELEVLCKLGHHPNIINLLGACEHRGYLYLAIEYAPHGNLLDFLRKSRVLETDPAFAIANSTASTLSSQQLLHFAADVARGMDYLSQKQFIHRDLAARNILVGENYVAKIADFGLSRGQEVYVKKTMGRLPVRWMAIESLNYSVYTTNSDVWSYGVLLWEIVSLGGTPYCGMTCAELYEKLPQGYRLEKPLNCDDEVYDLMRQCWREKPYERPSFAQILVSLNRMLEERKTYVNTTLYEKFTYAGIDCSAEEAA
- measurement_protocol: Tie-2 tyrosine kinase activity: kinase-dependent ATP consumption (pEY substrate, luciferase/luciferin chemiluminescence) or 33P-ATP incorporation into substrate
- Format: biochemical
- condition_parameters: Tie-2 (human enzyme) inhibition, Table 2, class symbols A-D

[
  {
    "structure_notation": "O=C(Cc1cccc2ccccc12)N(CCn1nc(-c2cccs2)nc1-c1ccncc1)C1CCCC1",
    "IC50": "0.05 to 1 µM"
  },
  {
    "structure_notation": "COc1ccc(-c2nc(-c3cccnc3)n(CC(=O)NC3CCCC3)n2)cc1Cl",
    "IC50": "≥ 10 µM"
  },
  {
    "structure_notation": "COc1ccc(-c2nc(-c3ccncc3)[nH]c2CCN(C(=O)Cc2cccc3ccccc23)C2CCCC2)cc1",
    "IC50": "0.05 to 1 µM"
  },
  {
    "structure_notation": "COc1ccc(-c2nc(-c3ccncc3)nn2CCN(C(=O)Nc2cccc(Cl)c2)C2CCCC2)cc1Cl",
    "IC50": "≥ 10 µM"
  },
  {
    "structure_notation": "COc1ccc(-c2nc(-c3ccncc3)nn2CCN(C(=O)Nc2cc(C)ccc2C)C2CCCC2)cc1Cl",
    "IC50": "1 to 10 µM"
  },
  {
    "structure_notation": "Cc1nc(-c2ccnc(Nc3ccccc3)c2)nn1CCN(C(=O)Cc1cccc2ccccc12)C1CCCC1",
    "IC50": "0.05 to 1 µM"
  },
  {
    "structure_notation": "Cc1nc(-c2ccnc(NCCN3CCOCC3)c2)nn1CCN(C(=O)Cc1cccc2ccccc12)C1CCCC1",
    "IC50": "< 0.05 µM"
  },
  {
    "structure_notation": "COc1ccc(-c2nc(-c3ccncc3)nn2CCN(C(=O)NC(C)C)C2CCCC2)cc1Cl",
    "IC50": "≥ 10 µM"
  },
  {
    "structure_notation": "COc1ccc(-c2nc(-c3ccncc3)nn2CCN(C(=O)Nc2cccc(Cl)c2Cl)C2CCCC2)cc1Cl",
    "IC50": "≥ 10 µM"
  },
  {
    "structure_notation": "COc1ccc(-c2nc(-c3ccncc3)nn2CCN(C(=O)c2ccnc3ccccc23)C2CCCC2)cc1Cl",
    "IC50": "≥ 10 µM"
  },
  {
    "structure_notation": "COc1ccc(-c2nc(-c3ccncc3)nn2CCN(C(=O)Nc2cc(C)cc(C)c2)C2CCCC2)cc1Cl",
    "IC50": "≥ 10 µM"
  },
  {
    "structure_notation": "Cc1nc(-c2ccncc2)nn1CCN(CCN1CCOCC1)C(=O)Cc1cccc2ccccc12",
    "IC50": "≥ 10 µM"
  },
  {
    "structure_notation": "COc1ccc(-c2nc(-c3ccncc3)nn2CCN(C(=O)Nc2c(C)cccc2C(C)(C)C)C2CCCC2)cc1Cl",
    "IC50": "≥ 10 µM"
  },
  {
    "structure_notation": "COc1ccc(-c2nc(-c3ccncc3)n(CCN(C(=O)Cc3cccc4ccccc34)C3CCCC3)n2)cc1",
    "IC50": "1 to 10 µM"
  },
  {
    "structure_notation": "O=C(Cc1cccc2ccccc12)N(CCn1nc(-c2ccc(Br)cc2)nc1-c1ccncc1)C1CCCC1",
    "IC50": "< 0.05 µM"
  },
  {
    "structure_notation": "Cc1nc(-c2ccncc2)nn1CCN(CCN1CCCC1)C(=O)Cc1cccc2ccccc12",
    "IC50": "≥ 10 µM"
  }
]
